B1: SAM and SH3 domain-containing protein 1, residues 630 to 700; numbered along this chain, O94885 (parent)
chain: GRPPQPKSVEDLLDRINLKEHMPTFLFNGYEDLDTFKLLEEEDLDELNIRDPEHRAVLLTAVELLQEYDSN

Variants of: B1
procedure_details: abundance fitness (aPCA) (normalised: wild type 0, dead -1); higher = more abundant; growth selection in yeast, the domain comes from the species named
protocol_conditions: Homo sapiens
parameter: abundance fitness
Keep the answer to the number alone.

Below, 5 variants whose answers are already recorded.
- mutations: "P23L"
  parameter: "abundance fitness"
  test_result: -0.056
- mutations: "P23E"
  parameter: "abundance fitness"
  test_result: 0.282
- mutations: "L18V"
  parameter: "abundance fitness"
  test_result: -0.742
- mutations: "S8A"
  parameter: "abundance fitness"
  test_result: -0.889
- mutations: "I16F"
  parameter: "abundance fitness"
  test_result: -0.266

Value lookup for abundance fitness; key = "A61F"
-0.759

Which abundance fitness is reported for this variant? "N17P"
-1.08

Item under review: "I49Y" . Reported abundance fitness?
-0.869

What abundance fitness value was documented for this variant, "P23M" ?
-0.268
